- Target Under Test: cynomolgus PAI-1 (cynomolgus, UniProt P05121 24-402 (human entry), limits assumed)
- Assay Explanation: cell-based or functional assay
The entries below are paired with their reported Chromogenic IC50 ratio cyno/human.
Readout: Chromogenic IC50 ratio cyno/human (fold)

[[record]]
binder = "Antibody 24 scFv (scFv) QVQLQQSGAEVKKPGSSVKVSCKASGGTFSSYAISWVRQAPGQGLEWMGGIIPTFVTANYAQKFQGRVSITADESTSTAYMELSGLRSEDTAVYYCAREKRQWLEGHFDYWGRGTPVTVSSDIQMTQSPSFLSASIGDRVTITCRASEGIYHALAWYQQKPGKAPKLLIYRASSLASGAPSRFSGSGSGTDFTLTISSLQPDDFATYYCQQYSNYPLTFGGGTKLEIK"
unit_descriptor = "fold"
assay_result = 0.3

[[record]]
binder = "Antibody 11 scFv (scFv) QVQLQQSGAEVKKPGSSVKVSCKASGGTFSSYAISWMRQAPGQGLEWMGGIIPIFGTANYAQKFQGRVTITADESTSTAYMELSGLRSEDTAVYYCAREKRQWLEGHFDYWGRGTPVTVSSDIQMIQSPSFLSASTGDRVTITCQASEGIYHELAWYQQKPGKAPKLLIYRASSLASGAPSRFSGSGSGTDFTLTISSLQPDDFATYYCQQYSNYPLTFGGGTKLEIK"
unit_descriptor = "fold"
assay_result = 0.4

[[record]]
binder = "Antibody 03 scFv (scFv) QVQLQQSGAEVKKPGSSVKVSCKASGGTFSSYAISWVRQAPGQGLEWMGGIIPTFGTANYAQKFQGRVTITADESTSTAYMELSGLRSEDTAVYYCAREKRQWLEGHFDYWGRGTPVTVSSDIQMTQSPSFLSASIGDRVTITCRASEGIYRSLAWYQQKPGKAPKLLIYKASSLASGAPSRFSGSGSGTDFTLTISGLQPDDFATYYCQQYSNYPLTFGGGTKLEIK"
unit_descriptor = "fold"
assay_result = 0.1


Every entry's value here was drawn from patent US20130266566A1.
